Entries and their measured inhibition at 10 µM follow.
Molecular target: human PLK1 kinase domain (Homo sapiens)
Construct: Each reaction consisted of 30 nM enzyme PLK1 kinase domain
Assay: In vitro PLK1 assay (IMAP fluorescence polarization kinase assay)
Assay type: biochemical
Conditions: at 10 uM compound
Report the value in % with no unit label.

Sample records with inhibition at 10 µM:
| compound | number |
| --- | --- |
| CC(=O)Nc1ccc(-c2cc(Nc3ccc(S(=O)(=O)Nc4onc(C)c4C)cc3)ncn2)cc1 [Example 27] | 68.7 |
| Cc1noc(NS(=O)(=O)c2ccc(Nc3cc(-c4ccc(C(N)=O)cc4)ncn3)cc2)c1C [Example 46] | 24 |

Using known records, supply inhibition at 10 µM for COc1cccc(F)c1-c1cc(Nc2ccc(S(=O)(=O)Nc3onc(C)c3C)cc2)ncn1 [Example 12] 83.3

Using known records, supply inhibition at 10 µM for Cc1noc(NS(=O)(=O)c2ccc(Nc3cc(-c4ccccc4)ncn3)cc2)c1C [Example 39] 57.9

Using known records, supply inhibition at 10 µM for COc1ccc(OC)c(-c2cc(Nc3ccc(S(=O)(=O)Nc4onc(C)c4C)cc3)ncn2)c1 [Example 7] 59.6

Using known records, supply inhibition at 10 µM for Cc1noc(NS(=O)(=O)c2ccc(Nc3cc(-c4ccccc4OC(C)C)ncn3)cc2)c1C [Example 13] 88.6

Using known records, supply inhibition at 10 µM for Cc1noc(NS(=O)(=O)c2ccc(Nc3cc(-c4ccc(N(C)C)cc4)ncn3)cc2)c1C [Example 48] 87

====

In what follows, each item is paired with its pIC50 for human PLK1 kinase domain (Homo sapiens, UniProt P53350).
Notebook: values listed as pIC50 are -log10 of the concentration (mol/L).

| smiles | testSystem | pIC50 |
| --- | --- | --- |
| Cc1noc(NS(=O)(=O)c2ccc(Nc3cc(-c4ccccc4F)ncn3)cc2)c1C | human PLK1 kinase domain (Homo sapiens, UniProt P53350) | 5.61 |
| COc1cc(F)ccc1-c1cc(Nc2ccc(S(=O)(=O)Nc3onc(C)c3C)cc2)ncn1 | human PLK1 kinase domain (Homo sapiens, UniProt P53350) | 7.40 |
| COc1cc(Cl)ccc1-c1cc(Nc2ccc(S(=O)(=O)Nc3onc(C)c3C)cc2)ncn1 | human PLK1 kinase domain (Homo sapiens, UniProt P53350) | 7.23 |

GET pIC50 | system: human PLK1 kinase domain (Homo sapiens, UniProt P53350) | item: Cc1noc(NS(=O)(=O)c2ccc(Nc3cc(-c4ccc(N)cc4)ncn3)cc2)c1C 5.13

GET pIC50 | system: human PLK1 kinase domain (Homo sapiens, UniProt P53350) | item: Cc1noc(NS(=O)(=O)c2ccc(Nc3cc(-c4ccc(F)cc4OC(C)C)ncn3)cc2)c1C 6.75

GET pIC50 | system: human PLK1 kinase domain (Homo sapiens, UniProt P53350) | item: COc1cccc(-c2cc(Nc3ccc(S(=O)(=O)Nc4onc(C)c4C)cc3)ncn2)c1OC 5.66

GET pIC50 | system: human PLK1 kinase domain (Homo sapiens, UniProt P53350) | item: Cc1noc(NS(=O)(=O)c2ccc(Nc3cc(-c4cc(Cl)ccc4Cl)ncn3)cc2)c1C 6.22

GET pIC50 | system: human PLK1 kinase domain (Homo sapiens, UniProt P53350) | item: COc1ccc(F)cc1-c1cc(Nc2ccc(S(=O)(=O)Nc3onc(C)c3C)cc2)ncn1 5.50

GET pIC50 | system: human PLK1 kinase domain (Homo sapiens, UniProt P53350) | item: Cc1noc(NS(=O)(=O)c2ccc(Nc3cc(-c4ccccc4C(F)(F)F)ncn3)cc2)c1C 5.84

====

Target: human PLK1 kinase domain (Homo sapiens)
Construct: Each reaction consisted of 30 nM enzyme PLK1 kinase domain
Assay: In vitro PLK1 assay (IMAP fluorescence polarization kinase assay)
Assay type: biochemical
Conditions: at 10 uM compound
I would appreciate it if you labelled entries true when inhibition at 10 µM is 60% or higher, otherwise false.

Use the examples below as a reference point.
| smiles | labelValue |
| --- | --- |
| CCc1ccccc1-c1cc(Nc2ccc(S(=O)(=O)Nc3onc(C)c3C)cc2)ncn1 | true |
| CCCOc1ccccc1-c1cc(Nc2ccc(S(=O)(=O)Nc3onc(C)c3C)cc2)ncn1 | true |
| Cc1noc(NS(=O)(=O)c2ccc(Nc3cc(-c4cc(Cl)ccc4Cl)ncn3)cc2)c1C | false |
| COc1cccc(-c2cc(Nc3ccc(S(=O)(=O)Nc4onc(C)c4C)cc3)ncn2)c1 | true |
| Cc1noc(NS(=O)(=O)c2ccc(Nc3cc(-c4ccc5c(c4)OCO5)ncn3)cc2)c1C | true |
| Cc1noc(NS(=O)(=O)c2ccc(Nc3cc(-c4ccc(F)cc4F)ncn3)cc2)c1C | true |

Determine whether this compound has inhibition at 10 µM no lower than 60%: Cc1ccc(COCc2cc(C)cc(-c3cc(Nc4ccc(S(=O)(=O)Nc5onc(C)c5C)cc4)ncn3)c2)cc1 false

Determine whether this compound has inhibition at 10 µM no lower than 60%: COc1ccc(C(C)C)cc1-c1cc(Nc2ccc(S(=O)(=O)Nc3onc(C)c3C)cc2)ncn1 false

Determine whether this compound has inhibition at 10 µM no lower than 60%: COc1ccc(-c2cc(Nc3ccc(S(=O)(=O)Nc4onc(C)c4C)cc3)ncn2)c(OC)c1 true

Determine whether this compound has inhibition at 10 µM no lower than 60%: Cc1noc(NS(=O)(=O)c2ccc(Nc3cc(-c4ccccc4F)ncn3)cc2)c1C true

Determine whether this compound has inhibition at 10 µM no lower than 60%: CCOc1ccccc1-c1cc(Nc2ccc(S(=O)(=O)Nc3onc(C)c3C)cc2)ncn1 true

Determine whether this compound has inhibition at 10 µM no lower than 60%: COc1ccccc1-c1cc(Nc2ccc(S(=O)(=O)Nc3cc(C)on3)cc2)ncn1 false

Determine whether this compound has inhibition at 10 µM no lower than 60%: COc1ccc(F)cc1-c1cc(Nc2ccc(S(=O)(=O)Nc3onc(C)c3C)cc2)ncn1 true

====

Test system: HepG2
Entries and their measured HepG2 TD50 follow.
Provide a numeric answer; units are not to be included.

| smiles | HepG2 TD50 |
| --- | --- |
| COc1cccc(F)c1-c1cc(Nc2ccc(S(=O)(=O)Nc3onc(C)c3C)cc2)ncn1 | 19.6 |

GET HepG2 TD50 | system: HepG2 | item: COc1cccc(Cl)c1-c1cc(Nc2ccc(S(=O)(=O)Nc3onc(C)c3C)cc2)ncn1 0.0458

GET HepG2 TD50 | system: HepG2 | item: COc1ccc(C(C)(C)C)cc1-c1cc(Nc2ccc(S(=O)(=O)Nc3onc(C)c3C)cc2)ncn1 19.6

GET HepG2 TD50 | system: HepG2 | item: Cc1noc(NS(=O)(=O)c2ccc(Nc3cc(-c4cc(Cl)ccc4Cl)ncn3)cc2)c1C 2.37

====

Target: human PLK1 kinase domain (Homo sapiens, UniProt P53350)
Construct: Each reaction consisted of 30 nM enzyme PLK1 kinase domain
Sequence (P53350 53-305 limits assumed): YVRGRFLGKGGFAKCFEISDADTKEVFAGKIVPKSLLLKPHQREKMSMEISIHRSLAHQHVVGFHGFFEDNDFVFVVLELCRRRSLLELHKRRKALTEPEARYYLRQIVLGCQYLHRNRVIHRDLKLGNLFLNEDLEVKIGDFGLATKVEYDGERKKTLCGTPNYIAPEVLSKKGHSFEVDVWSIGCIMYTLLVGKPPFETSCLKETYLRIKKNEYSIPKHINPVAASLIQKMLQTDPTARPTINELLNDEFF
Experiment: In vitro PLK1 assay (IMAP fluorescence polarization kinase assay)
Format: biochemical
Conditions: at 10 uM compound
Entries and their measured inhibition at 10 µM follow.
Report the value in % with no unit label.

| smiles | number |
| --- | --- |
| Cc1noc(NS(=O)(=O)c2ccc(Nc3cc(-c4ccc(C(F)(F)F)cc4)ncn3)cc2)c1C | 0 |
| COc1cccc(Cl)c1-c1cc(Nc2ccc(S(=O)(=O)Nc3onc(C)c3C)cc2)ncn1 | 96.4 |
| Cc1noc(NS(=O)(=O)c2ccc(Nc3cc(-c4cccc(N)c4)ncn3)cc2)c1C | 68 |
| COc1ccccc1-c1cc(Nc2ccc(S(=O)(=O)Nc3onc(C)c3C)cc2)ncn1 | 79.8 |

Using known records, supply inhibition at 10 µM for COc1cccc(-c2cc(Nc3ccc(S(=O)(=O)Nc4onc(C)c4C)cc3)ncn2)c1OC 77.3

Using known records, supply inhibition at 10 µM for Cc1noc(NS(=O)(=O)c2ccc(Nc3cc(-c4cccc(C(F)(F)F)c4)ncn3)cc2)c1C 17

Using known records, supply inhibition at 10 µM for Cc1noc(NS(=O)(=O)c2ccc(Nc3cc(-c4ccccc4Oc4ccccc4)ncn3)cc2)c1C 52.7

Using known records, supply inhibition at 10 µM for Cc1noc(NS(=O)(=O)c2ccc(Nc3cc(-c4cccc5c4OCO5)ncn3)cc2)c1C 48.5

====

Test system: M. tuberculosis H37Rv
Assay: Resazurin reduction microtiter assay (REMA), growth inhibition and MIC determination
Type: cell-based
Settings: Mycobacterium tuberculosis, 168 h, at 20 uM compound, 7 days at 37° C., read-out: H37Rv inh % at 20 uM
Entries and their measured inhibition at 20 µM follow.
Report the value in % with no unit label.

Sample records with inhibition at 20 µM:
| molecule | inhibition at 20 µM (%) |
| --- | --- |
| COc1cc(F)ccc1-c1cc(Nc2ccc(S(=O)(=O)Nc3onc(C)c3C)cc2)ncn1 | -8.6 |
| COc1ccc(C(C)(C)C)cc1-c1cc(Nc2ccc(S(=O)(=O)Nc3onc(C)c3C)cc2)ncn1 | 94.1 |
| Cc1noc(NS(=O)(=O)c2ccc(Nc3cc(-c4ccc(F)cc4Cl)ncn3)cc2)c1C | 100 |
| CCc1ccccc1-c1cc(Nc2ccc(S(=O)(=O)Nc3onc(C)c3C)cc2)ncn1 | 103 |
| Cc1noc(NS(=O)(=O)c2ccc(Nc3cc(-c4ccccc4C(F)(F)F)ncn3)cc2)c1C | 101 |

Using known records, supply inhibition at 20 µM for COc1cccc(OC)c1-c1cc(Nc2ccc(S(=O)(=O)Nc3onc(C)c3C)cc2)ncn1 102

Using known records, supply inhibition at 20 µM for COc1ccccc1-c1cc(Nc2ccc(S(=O)(=O)Nc3cc(C)on3)cc2)ncn1 -30.6

Using known records, supply inhibition at 20 µM for Cc1noc(NS(=O)(=O)c2ccc(Nc3cc(-c4c(F)cccc4OC(C)C)ncn3)cc2)c1C 102

Using known records, supply inhibition at 20 µM for CC(=O)Nc1ccc(-c2cc(Nc3ccc(S(=O)(=O)Nc4onc(C)c4C)cc3)ncn2)cc1 -11.9
